# Protocol Text: chemical genetic growth profiling, strain panel (AID 1159580);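 also: tested at 20 µM; growth read once vehicle control cultures reached saturation at 30 °C; 1 = growth at the plate median or of vehicle wells; lower values mean less growth of the strain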
# Condition Info: S. cerevisiae deletion strains, growth OD, locus YGR078C, strain PAC10, active compounds read low
The whole screen tested about 5,500 compounds, of which about 2,000 (36%) were called active. Inconclusive results (about 18%) are left out. Some of the results follow. Where a SMILES comes first, the peptide text is derived from it. Bridges are numbered along the chain shown (N, C = ends). [ ]: non-standard residue; d: D form. The star is where a group is joined. ξ: configuration not given here. ξDab(CH2SO3H) = NC(CCNCS(=O)(=O)O)C(=O)O; Heptanoyl(6-Me) = CC(C)CCCCC(=O)*; Dab = NCC[CH](N)C(=O)O
Parameter: normalized growth. Scope: all listed entries.
Quantity Name: normalized growth

• O=C(Nc1cc(C(=O)Nc2ccc(S(=O)(=O)O)cc2S(=O)(=O)O)cc(C(=O)Nc2ccc(S(=O)(=O)O)cc2S(=O)(=O)O)c1)Nc1cc(C(=O)Nc2ccc(S(=O)(=O)O)cc2S(=O)(=O)O)cc(C(=O)Nc2ccc(S(=O)(=O)O)cc2S(=O)(=O)O)c1 = 0.987
• COc1ccc(NC(=O)C(C)c2ccc(CC(C)C)cc2)cc1 (centres undefined) = 0.886
• Cc1ccnc(NS(=O)(=O)c2ccc(N)cc2)n1 = 0.971
• CCC(C)C1NC(=O)C(CCNCS(=O)(=O)O)NC(=O)C(NC(=O)C(CCNCS(=O)(=O)O)NC(=O)C(NC(=O)C(CCNCS(=O)(=O)O)NC(=O)CCCCC(C)C)C(C)O)CCNC(=O)C(C(C)O)NC(=O)C(CCNCS(=O)(=O)O)NC(=O)C(CCNCS(=O)(=O)O)NC(=O)C(C(C)CC)NC1=O (centres undefined) ({Heptanoyl(6-Me)}-[ξDab(CH2SO3H)]T[ξDab(CH2SO3H)][Dab][ξDab(CH2SO3H)]II[ξDab(CH2SO3H)][ξDab(CH2SO3H)]T; lactam 4-C; configuration not given here) = 0.999

---

# Protocol Text: chemical genetic growth profiling, strain panel (AID 1159580);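 also: tested at 20 µM; growth read once vehicle control cultures reached saturation at 30 °C; 1 = growth at the plate median or of vehicle wells; lower values mean less growth of the strain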
# Condition Info: S. cerevisiae deletion strains, growth OD, locus YOR069W, strain VPS5, active compounds read low
The whole screen tested about 5,500 compounds, of which about 2,000 (36%) were called active. Not shown: some 18% with an inconclusive outcome. Some of the results follow. Where a SMILES comes first, the peptide text is derived from it. The star is where a group is joined. For = O=C*
Quantity Name: normalized growth

- O=C1C(O)=C(O)C(=O)C(O)=C1O: 1
- COC(=O)Nc1nc2ccc(Sc3ccccc3)cc2[nH]1: 1
- C[C@@H]1CC[C@H]2[C@@H](C)C(=O)O[C@@H]3O[C@@]4(C)CC[C@@H]1[C@]32OO4: 0.911
- Cc1ccnc(NS(=O)(=O)c2ccc(N)cc2)n1: 1.01
- CC(C)CC(N(C)C)C1(c2ccc(Cl)cc2)CCC1 (stereo not drawn): 0.992
- Nc1ccccc1C(=O)CC(N)C(=O)O (stereo not drawn): 0.993
- COC(=O)Nc1nc2ccc(C(=O)c3ccccc3)cc2[nH]1: 0.993
- O=C1c2c(O)cccc2Cc2cccc(O)c21: 1.01
- Cc1ccc(-c2cc(C(F)(F)F)nn2-c2ccc(S(N)(=O)=O)cc2)cc1: 0.996
- CC1C(=O)OC2C1CCC1(C)C=CC(=O)C3(C)OC213 (stereo not drawn): 1.01
- CCOP(=S)(OCC)Oc1nc(Cl)c(Cl)cc1Cl: 0.997
- C#C[C@]1(O)CCC2C3CCC4=CC(=O)CC[C@@H]4C3CC[C@@]21C (stereo partly drawn): 0.988
- COc1c(CC(=O)c2cc3c(cc2O)OC(C)(C)C(O)C3)ccc2c1C=CC(C)(C)O2 (stereo not drawn): 1
- COC(=O)C[C@H]1C(C)(C)C(=O)[C@@H]2CC3C4=CC(=O)O[C@@H](c5ccoc5)[C@]4(C)CCC3[C@@]1(C)C2=O (stereo partly drawn): 0.988
- NC(N)=N/N=C/c1c(Cl)cccc1Cl: 1.01
- O=C(O)/C=C1\CCCc2ccccc2C1O (stereo not drawn): 1
- C[C@@H]1CC[C@H]2[C@@H](C)C(O)O[C@@H]3O[C@@]4(C)CC[C@@H]1[C@]32OO4 (stereo partly drawn): 0.564
- Cc1cc(O)cc(=O)o1: 0.992
- Cc1cc(O)c2c(c1)Cc1cccc(O)c1C2=O: 0.951
- Cc1cc(O)ccc1Cl: 1.01
- CSCCC(NC=O)C(=O)NC(Cc1ccccc1)C(=O)O (stereo not drawn) (For-Met-Phe-OH; configuration not given here): 1.01
- Nc1ccc(S(=O)(=O)Nc2ccnn2-c2ccccc2)cc1: 1.01
- Cc1ccc(S(=O)(=O)NC(=O)NN2CC3CCCC3C2)cc1 (stereo not drawn): 1.01
